Test system: S. mutans strain JCM5075
testSummary: Example 1: optical density and pH of S. mutans JCM5075 cultures in BHI broth with rare sugars, with or without sucrose
Assay type: cell-based, Streptococcus mutans
conditionsUsed: 10% test substance, no sucrose, BHI broth
We begin with a simple list: items and their reported pH 12 hours later.
Answer field: number only, no words.

Answered cases to consult:
Problem: Consider the molecule O=C(CO)[C@@H](O)[C@H](O)[C@@H](O)CO tested on S. mutans strain JCM5075; state its pH 12 hours later.
Solution: 7.2

Problem: Tell me its pH 12 hours later on S. mutans strain JCM5075: O=C(CO)[C@@H](O)[C@@H](O)[C@@H](O)CO
Solution: 7.0

Problem: Look up and report measured pH 12 hours later (S. mutans strain JCM5075) for the following molecule: O=C(CO)[C@@H](O)[C@H](O)[C@H](O)CO [D-fructose, reference compound]
Solution: 7.2

Further cases:
Problem: Provide S. mutans strain JCM5075 pH 12 hours later reading for O=C(CO)[C@H](O)[C@@H](O)[C@H](O)CO .
Solution: 7.2

Problem: Retrieve pH 12 hours later on S. mutans strain JCM5075; query OC[C@@H](O)[C@H](O)[C@@H](O)CO [Xylitol, reference compound]
Solution: 7.2

Problem: Determine reported pH 12 hours later for O=C(CO)[C@H](O)[C@@H](O)[C@@H](O)CO ; test system: S. mutans strain JCM5075.
Solution: 7.2

Problem: Provide S. mutans strain JCM5075 pH 12 hours later reading for O=C(CO)[C@H](O)[C@H](O)[C@H](O)CO .
Solution: 7.2

Problem: Report measured pH 12 hours later on S. mutans strain JCM5075; entry: O=C(CO)[C@@H](O)[C@@H](O)[C@H](O)CO
Solution: 7.0

Problem: Report measured pH 12 hours later on S. mutans strain JCM5075; entry: O=C(CO)[C@H](O)[C@H](O)[C@@H](O)CO
Solution: 6.9

----------
System: S. mutans strain JCM5075
testSummary: Example 1: optical density and pH of S. mutans JCM5075 cultures in BHI broth with rare sugars, with or without sucrose
Format: cell-based, Streptococcus mutans
conditionsUsed: 5% test substance, no sucrose, BHI broth
measurementType: pH 0 hour later
Lab note: write the figure by itself, no unit.

Problem: In one line, give reported pH 0 hour later of the entry O=C(CO)[C@H](O)[C@H](O)[C@H](O)CO .
Solution: 7.4

Problem: Provide measured pH 0 hour later value, entry: O=C(CO)[C@H](O)[C@H](O)[C@@H](O)CO
Solution: 7.3

Problem: Look up pH 0 hour later of O=C(CO)[C@@H](O)[C@@H](O)[C@H](O)CO and report it.
Solution: 7.3

We next turn to a different compound, shown below.
Problem: Complete the entry with pH 0 hour later for O=C(CO)[C@H](O)[C@@H](O)[C@H](O)CO
Solution: 7.4

----------
Test system: S. mutans strain JCM5075
testSummary: Example 1: optical density and pH of S. mutans JCM5075 cultures in BHI broth with rare sugars, with or without sucrose
Assay type: cell-based, Streptococcus mutans
conditionsUsed: 5% test substance, no sucrose, BHI broth
measurementType: pH 24 hours later
Please reply with the value in numeric form only.

Study these solved cases before continuing.
Problem: Supply measured pH 24 hours later of O=C(CO)[C@H](O)[C@@H](O)[C@H](O)CO in your reply.
Solution: 5.5

Problem: Give pH 24 hours later for the following compound: O=C(CO)[C@@H](O)[C@@H](O)[C@H](O)CO
Solution: 7.0

Problem: Respond only with pH 24 hours later recorded for OC[C@@H](O)[C@H](O)[C@@H](O)CO [Xylitol, reference compound]
Solution: 6.4

Problem: Look up and report measured pH 24 hours later for this entry: O=C(CO)[C@@H](O)[C@@H](O)[C@@H](O)CO
Solution: 6.8

Next:
Problem: Let me know recorded pH 24 hours later for O=C(CO)[C@H](O)[C@H](O)[C@@H](O)CO , thanks.
Solution: 6.6

Problem: Give a short answer stating reported pH 24 hours later for O=C(CO)[C@@H](O)[C@H](O)[C@H](O)CO [D-fructose, reference compound] .
Solution: 4.7

Problem: Using the record for O=C(CO)[C@H](O)[C@@H](O)[C@@H](O)CO , state its measured pH 24 hours later.
Solution: 4.7

Problem: Hello, please tell me recorded pH 24 hours later for this one: O=C(CO)[C@H](O)[C@H](O)[C@H](O)CO
Solution: 7.0

Problem: Output measured pH 24 hours later for this item: O=C(CO)[C@@H](O)[C@H](O)[C@@H](O)CO
Solution: 5.9

----------
Tested on: S. mutans strain JCM5075
testSummary: Example 1: optical density and pH of S. mutans JCM5075 cultures in BHI broth with rare sugars, with or without sucrose
Assay type: cell-based, Streptococcus mutans
conditionsUsed: 5% test substance, no sucrose, BHI broth
measurementType: pH 0 hour later

Problem: Return pH 0 hour later (reported value) for this molecule: O=C(CO)[C@@H](O)[C@H](O)[C@@H](O)CO
Solution: 7.4

Problem: Give the reported pH 0 hour later for this molecule. OC[C@@H](O)[C@H](O)[C@@H](O)CO [Xylitol, reference compound]
Solution: 7.3

----------
In this section, each of the compounds is paired with its reported pH 0 hour later.
Tested on: S. mutans strain JCM5075
testSummary: Example 1: optical density and pH of S. mutans JCM5075 cultures in BHI broth with rare sugars, with or without sucrose
Assay type: cell-based, Streptococcus mutans
conditionsUsed: 5% test substance, no sucrose, BHI broth
Returns: the value as a bare number; no unit string appended.

Worked cases, answers included:
Problem: For the compound O=C(CO)[C@@H](O)[C@@H](O)[C@@H](O)CO [L-psicose] , give its reported pH 0 hour later.
Solution: 7.3

Problem: Answer with reported pH 0 hour later of O=C(CO)[C@H](O)[C@@H](O)[C@@H](O)CO [L-fructose]
Solution: 7.4

Below: the item to evaluate.
Problem: Check the records and state pH 0 hour later for O=C(CO)[C@@H](O)[C@H](O)[C@H](O)CO [D-fructose, reference compound]
Solution: 7.4
